# target_or_system: Metabotropic glutamate receptor 8 (Rattus norvegicus) (UniProt P70579)
# Sequence (P70579 whole entry, looked up): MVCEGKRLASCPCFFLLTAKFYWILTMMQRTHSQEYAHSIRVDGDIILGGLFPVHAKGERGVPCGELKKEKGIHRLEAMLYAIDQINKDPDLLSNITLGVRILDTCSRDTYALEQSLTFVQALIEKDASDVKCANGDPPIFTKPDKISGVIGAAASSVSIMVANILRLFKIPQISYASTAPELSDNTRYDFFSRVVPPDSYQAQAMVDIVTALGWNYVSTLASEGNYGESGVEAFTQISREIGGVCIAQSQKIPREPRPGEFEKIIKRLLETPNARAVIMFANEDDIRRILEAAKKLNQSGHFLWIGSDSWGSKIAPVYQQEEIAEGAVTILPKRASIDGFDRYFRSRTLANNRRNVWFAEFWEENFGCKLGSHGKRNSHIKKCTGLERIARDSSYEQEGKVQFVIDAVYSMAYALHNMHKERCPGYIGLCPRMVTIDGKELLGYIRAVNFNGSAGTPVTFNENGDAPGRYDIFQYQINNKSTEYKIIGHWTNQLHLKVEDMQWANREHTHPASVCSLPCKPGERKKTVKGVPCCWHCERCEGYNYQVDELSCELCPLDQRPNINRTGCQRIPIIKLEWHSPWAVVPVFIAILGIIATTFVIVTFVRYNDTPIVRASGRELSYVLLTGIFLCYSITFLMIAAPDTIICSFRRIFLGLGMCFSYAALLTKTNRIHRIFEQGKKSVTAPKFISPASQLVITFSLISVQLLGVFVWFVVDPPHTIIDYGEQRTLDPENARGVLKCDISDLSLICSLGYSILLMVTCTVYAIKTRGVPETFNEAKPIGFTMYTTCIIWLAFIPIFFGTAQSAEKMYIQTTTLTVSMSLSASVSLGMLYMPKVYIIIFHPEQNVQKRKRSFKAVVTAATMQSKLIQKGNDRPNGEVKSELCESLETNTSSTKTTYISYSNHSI
# measurement_notes: mGluR8 Gi/Go-coupled signaling modulation – cell-based, rat, thallium flux, HTS, primary screen (AID 488969)
# measurement_conditions: HEK293 rat mGluR8, GIRK (G protein-gated inwardly rectifying potassium channel) thallium flux, FluoZin2; at 10 µM; stronger effect = higher value; submaximal glutamate (EC20) added with thallium
In all, about 110,000 compounds were measured (“z-score”: median about -0.1, highest 2% from about 2 on). Only a selection was taken, and the highest values are over-represented in it overall.
Reported z-score values follow for various compounds
reported_metric: z-score

compound=COc1cc(CCN2C(=O)c3cccc4cccc(c34)C2=O)c(S(=O)(=O)NCCCO)cc1OC reported_metric=z-score measurement=0.452
compound="Cc1nn(C)c(C)c1CN(C)C(=O)c1nn2c(c1Br)NC(c1cccs1)CC2C(F)(F)F (centres undefined)" reported_metric=z-score measurement=2.24
compound=Cc1nc2cc(Nc3nnc(-c4ccccc4)c4ccccc34)ccc2n1C reported_metric=z-score measurement=-0.174
compound=CCOC(=O)C1=C(C)NC(C)=C(C(=O)OCC)C1c1ccc(Br)o1 reported_metric=z-score measurement=-0.356
